Test system: Huh7 cells expressing a subgenomic RNA replicon of Con1 (genotype 1b) sequence origin
Protocol notes: microbe, parasite or virus in culture
Run conditions: Hepatitis C virus, Huh-7
pIC50: −log10 of the molar value.
Property label: pIC50

{"Compound": "CCN(CC)CCCC(C)Nc1ccnc2cc(Cl)ccc12 (stereo not shown) [Chloroquine (e.g., phosphate), Chloroquine, reference compound]", "Measured target": "Huh7 cells expressing a subgenomic RNA replicon of Con1 (genotype 1b) sequence origin", "Property label": "pIC50", "Quantitative result": 5.32}
{"Compound": "Cc1cccc(CN2CCN(C(c3ccccc3)c3ccc(Cl)cc3)CC2)c1 (stereo not shown) [Meclizine, meclizine, reference compound]", "Measured target": "Huh7 cells expressing a subgenomic RNA replicon of Con1 (genotype 1b) sequence origin", "Property label": "pIC50", "Quantitative result": 4.84}
{"Compound": "CC(=O)[C@H]1CC[C@H]2[C@@H]3C=CC4=CC(=O)CC[C@@]4(C)[C@@H]3CC[C@]12C [Dydrogesterone, reference compound]", "Measured target": "Huh7 cells expressing a subgenomic RNA replicon of Con1 (genotype 1b) sequence origin", "Property label": "pIC50", "Quantitative result": 5.56}
{"Compound": "O=C1[C@H]2CCCC[C@H]2C(=O)N1CCCCN1CCN(c2nsc3ccccc23)CC1 [Perospirone, reference compound]", "Measured target": "Huh7 cells expressing a subgenomic RNA replicon of Con1 (genotype 1b) sequence origin", "Property label": "pIC50", "Quantitative result": 5.44}
{"Compound": "CC1(C)O[C@@H]2C[C@H]3[C@@H]4CCC5=CC(=O)CC[C@]5(C)[C@@]4(F)[C@@H](O)C[C@]3(C)[C@]2(C(=O)CCl)O1 [Halcinonide, halcinonide, reference compound]", "Measured target": "Huh7 cells expressing a subgenomic RNA replicon of Con1 (genotype 1b) sequence origin", "Property label": "pIC50", "Quantitative result": 4.76}
{"Compound": "COc1c(C)c2c(c(O)c1C/C=C(\\C)CCC(=O)O)C(=O)OC2 [Mycophenolic Acid, Mycophenolic acid, reference compound]", "Measured target": "Huh7 cells expressing a subgenomic RNA replicon of Con1 (genotype 1b) sequence origin", "Property label": "pIC50", "Quantitative result": 6.12}
{"Compound": "O=c1cc(N2CCOCC2)oc2c(-c3ccccc3)cccc12 [LY 294002, reference compound]", "Measured target": "Huh7 cells expressing a subgenomic RNA replicon of Con1 (genotype 1b) sequence origin", "Property label": "pIC50", "Quantitative result": 5.47}

###

Tested on: Huh7 cells expressing a subgenomic RNA replicon of Con1 (genotype 1b) sequence origin
Protocol notes: microbe, parasite or virus in culture
Run conditions: Hepatitis C virus, Huh-7
Structures can show the parent of a compound that is named as a salt.

{"Molecule": "CN[C@H]1CC[C@@H](c2ccc(Cl)c(Cl)c2)c2ccc(NS(=O)(=O)c3ccccc3)cc21", "IC50, µM": 3.48}
{"Molecule": "CC(C)c1nc(CN(C)C(=O)N[C@H](C(=O)N[C@@H](Cc2ccccc2)C[C@H](O)[C@H](Cc2ccccc2)NC(=O)OCc2cncs2)C(C)C)cs1 [Ritonavir, reference compound]", "IC50, µM": 14.9}
{"Molecule": "O=c1[nH]c(=O)n([C@H]2C[C@H](O)[C@@H](CO)O2)cc1F [Floxuridine, floxuridine, reference compound]", "IC50, µM": 0.0045}
{"Molecule": "CC[C@@]1(O)C(=O)OCc2c1cc1n(c2=O)Cc2cc3c(CN(C)C)c(O)ccc3nc2-1 [Topotecan (e.g., hydrochloride), topotecan, reference compound]", "IC50, µM": 0.095}
{"Molecule": "CN(C)CCCC1(c2ccc(F)cc2)OCc2cc(C#N)ccc21 (stereo not shown) [Citalopram (e.g., hydrobromide), Citalopram, reference compound]", "IC50, µM": 27.3}
{"Molecule": "COC1=CC(=O)C[C@@H](C)[C@]12Oc1c(Cl)c(OC)cc(OC)c1C2=O [Griseofulvin (e.g., microcrystalline), Griseofulvin, reference compound]", "IC50, µM": 11.5}
{"Molecule": "CN(C)CCCN1c2ccccc2CCc2ccccc21 [Imipramine (e.g., hydrochloride), Imipramine, reference compound]", "IC50, µM": 16.9}
{"Molecule": "N=c1ccn2c(n1)O[C@H]1[C@H](O)[C@@H](CO)O[C@H]12 [Cyclocytidine (e.g., hydrochloride), Cyclocytidine, reference compound]", "IC50, µM": 0.183}
{"Molecule": "COC[C@H]1OC(=O)c2coc3c2[C@@]1(C)C1=C(C3=O)[C@@H]2CCC(=O)[C@@]2(C)C[C@H]1OC(C)=O [Wortmannin, wortmannin, reference compound]", "IC50, µM": 3.16}
{"Molecule": "O=C(c1ccc(OCCN2CCCCC2)cc1)c1c(-c2ccc(O)cc2)sc2cc(O)ccc12 [Raloxifene (e.g., hydrochloride), Raloxifene, reference compound]", "IC50, µM": 3.74}
